Recorded values, source patent US9199967B2.

# Lookup of reported IC50 keyed by entry
assayTarget: rCETP (Homo sapiens, UniProt P11597)
Sequence (P11597 18-493, species assumed): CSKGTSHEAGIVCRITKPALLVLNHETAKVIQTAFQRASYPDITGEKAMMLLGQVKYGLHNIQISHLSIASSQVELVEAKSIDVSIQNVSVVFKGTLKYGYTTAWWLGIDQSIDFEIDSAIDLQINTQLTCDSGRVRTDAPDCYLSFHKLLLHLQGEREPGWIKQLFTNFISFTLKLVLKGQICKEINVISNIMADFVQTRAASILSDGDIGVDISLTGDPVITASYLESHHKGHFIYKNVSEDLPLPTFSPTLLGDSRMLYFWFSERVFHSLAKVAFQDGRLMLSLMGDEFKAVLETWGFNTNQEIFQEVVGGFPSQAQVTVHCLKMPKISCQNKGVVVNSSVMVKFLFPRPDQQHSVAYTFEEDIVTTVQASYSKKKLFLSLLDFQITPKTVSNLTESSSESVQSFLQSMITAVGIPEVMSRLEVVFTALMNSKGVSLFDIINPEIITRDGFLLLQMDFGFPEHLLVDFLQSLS
assayMethodText: In vitro CETP inhibition assay, fluorometric kit (ROAR Biomedicals)
Assay type: biochemical
condition: rCETP 50 ng, 37° C., 90 minutes, fluorescence Ex 492 nm / Em 516 nm; read-out: IC50 (nM), inhibitory effect on CETP
Description: An in vitro cholesteryl ester transfer protein inhibition (CETP) assay using a commercially available fluorometric assay kit from ROAR Biomedicals, USA was used to measure the CETP inhibition activity of the compounds of this application. […] The CETP-mediated transfer of the fluorescent neutral lipid to the acceptor molecule results in an increase in fluorescence (Excitation: 492 nm; Emission: 516 nm). […]
measuredParameter: IC50

[[record]]
molecule = "CC1(C)CCc2cc(CN(Cc3cc(C(F)(F)F)cc(C(F)(F)F)c3)c3ncc(C(N)=O)cn3)c(N(CC3CC3)CC3CC3)nc21 [Example 9]"
measuredparameter = "IC50"
recordedvalue = "~94 nM"

[[record]]
molecule = "CC1(C)CCc2cc(CN(Cc3cc(C(F)(F)F)cc(C(F)(F)F)c3)c3ncc(N4CCCC4=O)cn3)c(N(CC3CC3)CC3CC3)nc21 [Example 2]"
measuredparameter = "IC50"
recordedvalue = "~29 nM"

[[record]]
molecule = "CC1(C)CCc2cc(CN(Cc3cc(C(F)(F)F)cc(C(F)(F)F)c3)c3ncc(N4CCOCC4)cn3)c(N(CC3CC3)CC3CC3)nc21 [Example 3]"
measuredparameter = "IC50"
recordedvalue = "~20 nM"

[[record]]
molecule = "CC1(C)CCc2cc(CN(Cc3cc(C(F)(F)F)cc(C(F)(F)F)c3)c3ncc(-c4ccon4)cn3)c(N(CC3CC3)CC3CC3)nc21 [Example 7]"
measuredparameter = "IC50"
recordedvalue = "~33 nM"

[[record]]
molecule = "CC(=O)c1cnc(N(Cc2cc(C(F)(F)F)cc(C(F)(F)F)c2)Cc2cc3c(nc2N(CC2CC2)CC2CC2)C(C)(C)CC3)nc1 [Example 4]"
measuredparameter = "IC50"
recordedvalue = "~50 nM"

[[record]]
molecule = "CC1CCc2cc(CN(Cc3cc(C(F)(F)F)cc(C(F)(F)F)c3)c3ncc(N4CCOCC4)cn3)c(N(CC3CC3)CC3CC3)nc21 (stereo not drawn) [Example 10]"
measuredparameter = "IC50"
recordedvalue = "~90 nM"

[[record]]
molecule = "CC1CCCc2cc(CN(Cc3cc(C(F)(F)F)cc(C(F)(F)F)c3)c3ncc(N4CCOCC4)cn3)c(N(CC3CC3)CC3CC3)nc21 (stereo not drawn) [Example 11]"
measuredparameter = "IC50"
recordedvalue = "~40 nM"

[[record]]
molecule = "CC1(C)CCc2cc(CN(Cc3cc(C(F)(F)F)cc(C(F)(F)F)c3)c3ncc(-c4cc[nH]n4)cn3)c(N(CC3CC3)CC3CC3)nc21 [Example 6]"
measuredparameter = "IC50"
recordedvalue = "~29 nM"

[[record]]
molecule = "CC1(C)CCc2cc(CN(Cc3cc(C(F)(F)F)cc(C(F)(F)F)c3)c3ccc4[nH]c(=O)oc4c3)c(N(CC3CC3)CC3CC3)nc21 [Example 17]"
measuredparameter = "IC50"
recordedvalue = "~16 nM"

